# System: Serratia marcescens expressing IMP-1 (CL5741)
# Format: cell-based
# Particulars: with imipenem 1 μg/ml; 95% inhibition of bacterial growth
Result type: CL5741 S. marcescens MITC95 IMP
Kindly format the answer as number then unit.

>>> value_observed("NCCCC1CCN(c2ccc(S(=O)(=O)NC[C@H](O)CN)c(S(N)(=O)=O)c2-c2nn[nH]n2)CC1")
"1.56 µM"

Consider the following items and state reported CL5741 S. marcescens MITC95 IMP for each.
1. NC[C@@H](O)CNS(=O)(=O)c1ccc(N2CCNC(CO)C2)c(-c2nn[nH]n2)c1S(N)(=O)=O (stereo partly shown)
2. NC[C@@H](O)CNS(=O)(=O)c1ccc(N2CCC(F)(CO)CC2)c(-c2nn[nH]n2)c1S(N)(=O)=O

["0.39 µM", "1.56 µM"]

Consider the following items and state reported CL5741 S. marcescens MITC95 IMP for each.
1. C[C@H](CN)NS(=O)(=O)c1ccc(N2CCC(CO)CC2)c(-c2nnn[nH]2)c1S(N)(=O)=O
2. NC[C@@H](O)CNS(=O)(=O)c1ccc(N2C[C@@H]3[C@@H](CN)[C@@H]3C2)c(-c2nn[nH]n2)c1S(N)(=O)=O
3. NCCN1CCN(c2ccc(S(=O)(=O)NC[C@H](O)CN)c(S(N)(=O)=O)c2-c2nnn[nH]2)CC1
4. NS(=O)(=O)c1c(S(=O)(=O)N[C@@H]2CCNC2)ccc(N2CCC(c3c[nH]cn3)CC2)c1-c1nn[nH]n1

1: 1.56 µM; 2: 1.56 µM; 3: 0.39 µM; 4: 0.78 µM
